Measurement Target: binding between TBK1 and full-length Regnase-1 (FL_Reg1) (Homo sapiens, UniProt Q5D1E8)
Construct: made in house; host or cells: Expi293 cells
Sequence (Q5D1E8 whole entry): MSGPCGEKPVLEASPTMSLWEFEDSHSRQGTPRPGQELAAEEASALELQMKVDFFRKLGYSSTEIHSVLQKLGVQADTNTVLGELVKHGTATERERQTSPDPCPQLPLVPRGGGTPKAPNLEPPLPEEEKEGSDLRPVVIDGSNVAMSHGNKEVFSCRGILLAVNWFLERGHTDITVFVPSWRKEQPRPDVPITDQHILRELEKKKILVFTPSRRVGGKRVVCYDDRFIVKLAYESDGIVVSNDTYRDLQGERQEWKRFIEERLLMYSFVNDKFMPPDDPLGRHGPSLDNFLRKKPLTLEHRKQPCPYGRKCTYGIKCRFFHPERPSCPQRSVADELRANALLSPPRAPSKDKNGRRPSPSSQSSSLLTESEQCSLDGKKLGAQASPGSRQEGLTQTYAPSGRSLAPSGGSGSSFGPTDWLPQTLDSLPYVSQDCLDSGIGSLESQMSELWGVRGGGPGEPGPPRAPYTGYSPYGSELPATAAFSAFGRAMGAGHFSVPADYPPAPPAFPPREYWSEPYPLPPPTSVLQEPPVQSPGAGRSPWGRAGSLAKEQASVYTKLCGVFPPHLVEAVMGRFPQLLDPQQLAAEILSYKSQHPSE
Experiment Description: Inhibition of kinase-Regnase-1 binding by the compounds (AlphaScreen), TBK1
Experimental Parameters: Table 13; binding between TBK1 and Regnase-1; read-out: Binding inhibition FL_Reg1, 50% inhibition concentration (TBK1)
Residues, ends and D or L forms follow the SMILES beside them.
Please go through the items and note down their pIC50.
One number for each entry, as −log10 of the molar value.

{"Compound": "C[C@@H]1C(=O)N[C@@H](CCC(=O)O)C(=O)N[C@@H](CC(=O)O)C(=O)N[C@@H]([C@@H](C)O)C(=O)N2CCC[C@H]2C(=O)N[C@@H](CCC(=O)O)C(=O)N[C@@H](CC(=O)O)C(=O)N[C@@H](CC(=O)O)C(=O)N[C@@H](Cc2c[nH]cn2)C(=O)N[C@H](C(=O)N2CCCC2)CC(=O)N1C [PP25] (HELM PEPTIDE1{[C[C@H](C(=O)[*:2])N(C)[*:1]].E.D.T.P.E.D.D.H.D.[C1CCN([*:1])C1]}$PEPTIDE1,PEPTIDE1,1:R1-10:R3$$$V2.0)", "pIC50": 4.88}

For each entry beneath this line, provide reported pIC50.
1. CC[C@H](C)[C@@H]1NC(=O)[C@H](CCCNC(=N)N)NC(=O)[C@H](Cc2ccc(O)cc2)NC(=O)[C@H](Cc2c[nH]c3ccccc23)NC(=O)[C@H](CO)NC(=O)[C@H](CC(N)=O)NC(=O)[C@H](C)N(C)C(=O)C[C@@H](C(=O)N2CCCC2)NC(=O)[C@H](CC(C)C)NC(=O)CNC(=O)[C@H](Cc2c[nH]c3ccccc23)NC1=O [PP22] (HELM PEPTIDE1{[meA].N.S.W.Y.R.I.W.G.L.D.[C1CCN([*:1])C1]}$PEPTIDE1,PEPTIDE1,1:R1-11:R3$$$V2.0)
2. CC[C@H](C)[C@@H]1NC(=O)[C@H](Cc2c[nH]c3ccccc23)NC(=O)[C@H](C)N(C)C(=O)C[C@@H](C(=O)N2CCCC2)NC(=O)[C@H](CCC(=O)O)NC(=O)[C@H](CC(N)=O)NC(=O)[C@H](Cc2c[nH]c3ccccc23)NC(=O)[C@H](Cc2ccccc2)NC(=O)[C@H](CC(=O)O)NC(=O)[C@H](Cc2c[nH]c3ccccc23)NC1=O [PP24] (HELM PEPTIDE1{[meA].W.I.W.D.F.W.N.E.D.[C1CCN([*:1])C1]}$PEPTIDE1,PEPTIDE1,1:R1-10:R3$$$V2.0)
3. CC(C)[C@@H]1NC(=O)[C@H](Cc2c[nH]c3ccccc23)NC(=O)[C@H](CCCCN)NC(=O)[C@H](Cc2c[nH]c3ccccc23)NC(=O)[C@H](CCC(N)=O)NC(=O)[C@H](CCCNC(=N)N)NC(=O)[C@H](Cc2ccccc2)NC(=O)[C@H](CCCNC(=N)N)NC(=O)[C@H](C)N(C)C(=O)C[C@@H](C(=O)N2CCCC2)NC(=O)[C@@H]2CCCN2C(=O)[C@H](Cc2ccc(O)cc2)NC1=O [PP13] (HELM PEPTIDE1{[meA].R.F.R.Q.W.K.W.V.Y.P.D.[C1CCN([*:1])C1]}$PEPTIDE1,PEPTIDE1,1:R1-12:R3$$$V2.0)

Result:
1: 4.94; 2: 5.11; 3: 4.86

FYI, the data here is from patent US20250018014A1.
